Every entry's value here was drawn from ChEMBL document CHEMBL1127332.

Would you mind telling me the reported maximum percent change in A II-supported mean arterial pressure at 3 mg/kg of each entry?
Tested on: Rattus norvegicus
Assay Summary: Maximum percent change in A II supported mean arterial pressure 60 minutes following 3 mg/kg i.d. administration.
Type: functional
Test Parameters: Artery, intraduodenal, in the assay text read “at the time of maximum effect following” for “60 minutes following”, read-out: Inhibition
Give bare numbers, in %.

Recorded results for 2 compounds are shown here.
[Q] Returns the measured maximum percent change in A II-supported mean arterial pressure at 3 mg/kg for the input compound. Input: `Cc1nc(C)c2c(n1)N(Cc1ccc(-c3ccccc3-c3nnn[nH]3)cc1)C(=O)CC2`
[A] -97

[Q] // same read-out, input: `Cc1nc2c(c(C(F)(F)F)n1)CCC(=O)N2Cc1ccc(-c2ccccc2-c2nn[nH]n2)nc1`
[A] -41

Please report maximum percent change in A II-supported mean arterial pressure at 3 mg/kg for every entry that follows.
1. CCc1nc(C)c2c(n1)N(Cc1ccc(-c3ccccc3-c3nn[nH]n3)cc1)C(=O)CC2
2. Cc1nc(C(C)C)c2c(n1)N(Cc1ccc(-c3ccccc3-c3nn[nH]n3)cc1)C(=O)CC2

[A]
-76
-44

* * *

Test system: Rattus norvegicus
Assay Summary: Maximum percent change in A II supported mean arterial pressure 60 minutes following 3 mg/kg i.d. administration.
Format: functional
Test Parameters: Artery, intraduodenal, in the assay text read “at the time of maximum effect following” for “60 minutes following”, read-out: Inhibition
Would you mind telling me the reported maximum percent change in A II-supported mean arterial pressure at 3 mg/kg of each entry?
Numbers only, in %.

Recorded results for 3 compounds are shown here.
[Q] Returns the measured maximum percent change in A II-supported mean arterial pressure at 3 mg/kg for the input compound. Input: `Cc1nc(CO)nc2c1CCC(=O)N2Cc1ccc(-c2ccccc2-c2nn[nH]n2)cc1`
[A] -30

[Q] // same read-out, input: `Cc1nc(C(C)C)nc2c1CCC(=O)N2Cc1ccc(-c2ccccc2-c2nn[nH]n2)cc1`
[A] -40

[Q] // same read-out, input: `Cc1nc(C)c2c(n1)N(Cc1ccc(-c3ccccc3-c3nn[nH]n3)cc1)C(=O)C(C)(C)C2`
[A] -66

Please report maximum percent change in A II-supported mean arterial pressure at 3 mg/kg for every entry that follows.
1. CCCCc1nc(Cl)c(CO)n1Cc1ccc(-c2ccccc2-c2nnn[nH]2)cc1
2. Cc1nc(C)c2c(n1)N(Cc1ccc(-c3ccccc3-c3nn[nH]n3)cn1)C(=O)CC2
3. CCc1nc(C)nc2c1CCC(=O)N2Cc1ccc(-c2ccccc2-c2nn[nH]n2)cc1
4. CCCc1nc(C)nc2c1CCC(=O)N2Cc1ccc(-c2ccccc2-c2nn[nH]n2)cc1
5. Cc1nc(C)c2c(n1)N(Cc1ccc(-c3ccccc3C(=O)[O-])cc1)C(=O)CC2.[K+]
6. Cc1nc2c(c(C(F)(F)F)n1)CCC(=O)N2Cc1ccc(-c2ccccc2-c2nn[nH]n2)cc1

[A]
-72
-34
-104
-86
-36
-68

* * *

Would you mind telling me the reported logD of each entry?
Assay Summary: Partition coefficient (logD) (octanol/0.01 N K2HPO4)
Type: physicochemical
Give bare numbers.

Recorded results for 2 compounds are shown here.
[Q] Returns the measured logD for the input compound. Input: Cc1nc(C)c2c(n1)N(Cc1ccc(-c3ccccc3-c3nnn[nH]3)cc1)C(=O)CC2 [TASOSARTAN]
[A] 0.49

[Q] // same read-out, input: `Cc1nc(C)c2c(n1)N(Cc1ccc(-c3ccccc3-c3nn[nH]n3)cc1)C(=O)C(C)(C)C2`
[A] 1.21

Now for another entry.
[Q] Returns the measured logD for the input compound. Input: `Cc1nc(C(C)C)c2c(n1)N(Cc1ccc(-c3ccccc3-c3nn[nH]n3)cc1)C(=O)CC2`
[A] 1.41
